Hey, just so you know, these numbers are from ChEMBL document CHEMBL2069293.

# System: CYP1A2 / CYP1B1
# Experiment description: Selectivity ratio, ratio of IC50 for human recombinant CYP1A2 to IC50 for human recombinant CYP1B1
# Format: ADME
# Condition label: recombinant CYP1A2 and recombinant CYP1B1, read-out: Ratio IC50
Collected selectivity ratio values appear next to each entry.
Reply: number alone, nothing else.

Consider the following illustrative entries.
COc1ccccc1/C=C/c1ccc(SC)cc1 : 25
COc1cc(/C=C/c2ccc(SC)cc2)cc(OC)c1OC : 2.7
COc1ccc(/C=C/c2ccc(SC)cc2)c(OC)c1 : 4.1
COc1cccc(/C=C/c2ccc(SC)cc2)c1 : 23
COc1cc(OC)c(/C=C/c2ccc(SC)cc2)c(OC)c1 : 17

// assay CYP1A2 / CYP1B1, entry `COc1ccc(OC)c(/C=C/c2ccc(SC)cc2)c1` , selectivity ratio value = 35.9

Sample `CSc1ccc(/C=C/c2ccccc2Cl)cc1` , system: CYP1A2 / CYP1B1. Its selectivity ratio is 48.3

The reported selectivity ratio value, CYP1A2 / CYP1B1, for `COc1cc(OC)c(OC)cc1/C=C/c1ccc(SC)cc1` reads 16.7

# value of selectivity ratio, CYP1A2 / CYP1B1, item `COc1ccc(/C=C/c2ccc(SC)cc2)cc1` = 4.2

Assay CYP1A2 / CYP1B1, sample `COc1cccc(/C=C/c2ccc(SC)cc2)c1OC` , selectivity ratio read: 20

Log: CYP1A2 / CYP1B1, compound `COc1cc(/C=C/c2ccc(SC)cc2)cc(OC)c1` , selectivity ratio = 3.3

---

Consider the following compounds and their measured selectivity ratio readings.
# Tested on: CYP1A2 / CYP1A1
# Experiment description: Selectivity ratio, ratio of IC50 for human recombinant CYP1A2 to IC50 for human recombinant CYP1A1
# Format: ADME
# Condition label: recombinant CYP1A2 and recombinant CYP1A1, read-out: Ratio IC50
Please give the numeric answer without any surrounding text.

Previously resolved entries follow.
COc1cccc(/C=C/c2ccc(SC)cc2)c1 : 10.5
CSc1ccc(/C=C/c2ccccc2Cl)cc1 : 14.5
COc1ccc(/C=C/c2ccc(SC)cc2)cc1 : 0.8
COc1ccc(OC)c(/C=C/c2ccc(SC)cc2)c1 : 10.4
COc1ccc(/C=C/c2ccc(SC)cc2)c(OC)c1 : 3.4

compound `COc1cc(OC)c(OC)cc1/C=C/c1ccc(SC)cc1` , selectivity ratio observed: 18.7

The recorded selectivity ratio for entry `COc1cccc(/C=C/c2ccc(SC)cc2)c1OC` equals 12.2

Entry `COc1cc(/C=C/c2ccc(SC)cc2)cc(OC)c1OC` ; selectivity ratio = 1.9

The measured selectivity ratio associated with `COc1ccccc1/C=C/c1ccc(SC)cc1` reads 7.5

selectivity ratio measured on `COc1cc(/C=C/c2ccc(SC)cc2)cc(OC)c1` = 3.6

Memo: `COc1cc(OC)c(/C=C/c2ccc(SC)cc2)c(OC)c1` , reported selectivity ratio: 16.3

---

# Target or test system: Cytochrome P450 1A1 (Homo sapiens, UniProt P04798)
# Sequence (P04798 whole entry): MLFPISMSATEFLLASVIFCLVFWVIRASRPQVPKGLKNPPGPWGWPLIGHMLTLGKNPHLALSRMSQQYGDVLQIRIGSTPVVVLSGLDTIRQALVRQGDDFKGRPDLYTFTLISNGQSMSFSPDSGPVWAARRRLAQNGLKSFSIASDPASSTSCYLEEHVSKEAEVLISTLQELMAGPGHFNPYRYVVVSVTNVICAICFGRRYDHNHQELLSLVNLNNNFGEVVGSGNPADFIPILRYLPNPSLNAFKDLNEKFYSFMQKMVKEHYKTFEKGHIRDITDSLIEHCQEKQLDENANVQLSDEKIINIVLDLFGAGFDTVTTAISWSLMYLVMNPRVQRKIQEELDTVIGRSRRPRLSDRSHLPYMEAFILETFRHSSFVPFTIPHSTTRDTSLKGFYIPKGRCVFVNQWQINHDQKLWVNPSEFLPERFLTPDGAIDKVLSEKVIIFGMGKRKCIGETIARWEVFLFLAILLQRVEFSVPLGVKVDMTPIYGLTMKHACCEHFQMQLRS
# Experiment description: Inhibition of human recombinant CYP1A1 by spectrophotometry based 7-ethoxyresorufin O-deethylation enzyme assay
# Format: ADME
Reported IC50 values follow for various compounds
Answer format: numeric, µM implied, no suffix.

Below: 10 compounds and their reported IC50.
COc1cc(OC)c(OC)cc1/C=C/c1ccc(SC)cc1 : 0.8
COc1ccccc1/C=C/c1ccc(SC)cc1 : 1
COc1ccc(/C=C/c2ccc(SC)cc2)c(OC)c1 : 2.4
COc1cccc(/C=C/c2ccc(SC)cc2)c1OC : 1.8
COc1ccc(OC)c(/C=C/c2ccc(SC)cc2)c1 : 3.8
COc1ccc(/C=C/c2ccc(SC)cc2)c(OC)c1OC : 0.9
COc1cc(/C=C/c2ccc(SC)cc2)cc(OC)c1 : 1.4
CSc1ccc(/C=C/c2ccccc2Cl)cc1 : 1
COc1cccc(/C=C/c2ccc(SC)cc2)c1 : 1.1
COc1cc(OC)c(/C=C/c2ccc(SC)cc2)c(OC)c1 : 0.4

Input `COc1ccc(/C=C/c2ccc(SC)cc2)cc1` . Output IC50: 28

Value of measured IC50 for the entry `COc1cc(/C=C/c2ccc(SC)cc2)cc(OC)c1OC` : 3.6

---

// reported IC50 for each item listed
# Target or test system: Cytochrome P450 1A2 (Homo sapiens)
# Sequence (P05177 whole entry): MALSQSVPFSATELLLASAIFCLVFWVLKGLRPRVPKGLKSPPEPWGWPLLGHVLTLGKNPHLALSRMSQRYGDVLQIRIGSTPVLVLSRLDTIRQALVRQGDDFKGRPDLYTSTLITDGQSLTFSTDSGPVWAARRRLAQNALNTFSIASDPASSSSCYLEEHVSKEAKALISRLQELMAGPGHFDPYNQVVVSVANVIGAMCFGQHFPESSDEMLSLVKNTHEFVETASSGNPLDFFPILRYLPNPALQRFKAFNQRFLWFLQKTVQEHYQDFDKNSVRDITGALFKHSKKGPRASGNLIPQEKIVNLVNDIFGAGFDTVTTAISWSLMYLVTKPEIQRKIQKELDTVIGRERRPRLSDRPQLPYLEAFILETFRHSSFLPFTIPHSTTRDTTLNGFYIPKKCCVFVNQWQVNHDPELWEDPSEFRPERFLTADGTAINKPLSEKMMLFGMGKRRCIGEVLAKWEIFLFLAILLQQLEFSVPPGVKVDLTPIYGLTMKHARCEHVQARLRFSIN
# Experiment description: Inhibition of human recombinant CYP1A2 by spectrophotometry based 7-ethoxyresorufin O-deethylation enzyme assay
Just the number please, in µM, no unit attached.

Example results:
COc1cc(/C=C/c2ccc(SC)cc2)cc(OC)c1 : 5
COc1cc(OC)c(OC)cc1/C=C/c1ccc(SC)cc1 : 15
COc1cc(/C=C/c2ccc(SC)cc2)cc(OC)c1OC : 7
COc1ccc(/C=C/c2ccc(SC)cc2)c(OC)c1 : 8.1
COc1cc(OC)c(/C=C/c2ccc(SC)cc2)c(OC)c1 : 6.5
COc1cccc(/C=C/c2ccc(SC)cc2)c1 : 11.5

According to the records, this compound `COc1cccc(/C=C/c2ccc(SC)cc2)c1OC` displays IC50 of 22

For `COc1ccc(OC)c(/C=C/c2ccc(SC)cc2)c1` the compound record lists IC50 as 39.5

Quick note, IC50 for `CSc1ccc(/C=C/c2ccccc2Cl)cc1` landed at 14.5

Consider `COc1ccccc1/C=C/c1ccc(SC)cc1` . Its measured IC50 is 7.5

Summary for this compound, `COc1ccc(/C=C/c2ccc(SC)cc2)cc1` : IC50 is 23

---

# Target or test system: UniProt Q16678
# Experiment description: Inhibition of human recombinant CYP1B1 by spectrophotometry based 7-ethoxyresorufin O-deethylation enzyme assay
# Format: ADME
Attribute: log10 IC50
Would you kindly interpret these values as log10 of IC50 expressed in nM?

Example results:
COc1cc(/C=C/c2ccc(SC)cc2)cc(OC)c1OC : 3.41
COc1ccc(/C=C/c2ccc(SC)cc2)c(OC)c1OC : 3.00
COc1ccc(/C=C/c2ccc(SC)cc2)c(OC)c1 : 3.30

The recorded log10 IC50 for entry `COc1ccccc1/C=C/c1ccc(SC)cc1` equals 2.48

---

# Target or test system: Cytochrome P450 1A2 (Homo sapiens, UniProt P05177)
# Experiment description: Activity of human recombinant CYP1A2 assessed as NADPH oxidation level per pmol of CYP1A2 level at 10 uM by spectrophotometry
# Type: ADME
# Condition label: recombinant enzyme
The following compounds are listed with their measured Activity values.

Sample answers from the record:
COc1ccc(/C=C/c2ccc(SC)cc2)c(OC)c1 : < 0.3 µM/min
COc1ccc(/C=C/c2ccc(SC)cc2)cc1 : < 0.3 µM/min
COc1cc(/C=C/c2ccc(SC)cc2)cc(OC)c1OC : 2.22 µM/min
COc1ccccc1/C=C/c1ccc(SC)cc1 : < 0.3 µM/min

Entry `COc1cccc(/C=C/c2ccc(SC)cc2)c1` — recorded Activity = < 0.3 µM/min

// field: Activity; key: `COc1ccc(OC)c(/C=C/c2ccc(SC)cc2)c1` ; value = < 0.3 µM/min

compound `COc1cccc(/C=C/c2ccc(SC)cc2)c1OC` , Activity observed: < 0.3 µM/min

Sure, the documented Activity for `COc1cc(OC)c(/C=C/c2ccc(SC)cc2)c(OC)c1` is < 0.3 µM/min

`COc1ccc(/C=C/c2ccc(SC)cc2)c(OC)c1OC` has a reported Activity of < 0.6 µM/min

Just so you know, measured Activity for `COc1cc(OC)c(OC)cc1/C=C/c1ccc(SC)cc1` came out at 2.91 µM/min

Field Activity (entry `COc1cc(/C=C/c2ccc(SC)cc2)cc(OC)c1` ) reads < 0.3 µM/min

---

# Target or test system: Cytochrome P450 1B1 (Homo sapiens)
# Sequence (Q16678 whole entry): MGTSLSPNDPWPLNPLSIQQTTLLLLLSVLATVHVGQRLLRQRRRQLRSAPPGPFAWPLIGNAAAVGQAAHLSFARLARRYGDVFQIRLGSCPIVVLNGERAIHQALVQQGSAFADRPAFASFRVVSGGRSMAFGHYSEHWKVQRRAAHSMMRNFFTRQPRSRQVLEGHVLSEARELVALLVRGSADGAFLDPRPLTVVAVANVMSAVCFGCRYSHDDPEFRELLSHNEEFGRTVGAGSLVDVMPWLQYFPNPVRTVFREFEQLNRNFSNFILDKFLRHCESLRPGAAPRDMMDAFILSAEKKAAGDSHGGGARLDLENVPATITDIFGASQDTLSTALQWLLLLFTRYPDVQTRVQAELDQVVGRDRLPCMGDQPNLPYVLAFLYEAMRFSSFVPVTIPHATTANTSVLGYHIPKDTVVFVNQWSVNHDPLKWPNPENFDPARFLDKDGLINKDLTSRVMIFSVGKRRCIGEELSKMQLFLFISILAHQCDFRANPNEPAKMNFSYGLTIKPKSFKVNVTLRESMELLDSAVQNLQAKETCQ
# Experiment description: Inhibition of human recombinant CYP1B1 by spectrophotometry based 7-ethoxyresorufin O-deethylation enzyme assay
# Assay type: ADME
Readout label: log10 IC50 (log10 of the value in µM)
Note: values are log10 of IC50 expressed in µM.

Worked examples, 5 compounds total:
COc1cccc(/C=C/c2ccc(SC)cc2)c1OC : 0.04
COc1ccc(/C=C/c2ccc(SC)cc2)cc1 : 0.74
COc1ccc(OC)c(/C=C/c2ccc(SC)cc2)c1 : 0.04
CSc1ccc(/C=C/c2ccccc2Cl)cc1 : -0.52
COc1cccc(/C=C/c2ccc(SC)cc2)c1 : -0.30

Please fill in: log10 IC50 reported for `COc1cc(OC)c(/C=C/c2ccc(SC)cc2)c(OC)c1` = -0.30

The reported log10 IC50 of the compound `COc1cc(OC)c(OC)cc1/C=C/c1ccc(SC)cc1` was -0.05

Record `COc1cc(/C=C/c2ccc(SC)cc2)cc(OC)c1` . Reported log10 IC50: 0.18
